Values were extracted from paper PMC8400480.

System: Pseudomonas aeruginosa CVCC 3359 (PA)
ASSAY_COMMENT: MIC, microplate dilution method
Assay type: cell-based
TEST_CONTEXT: Gram-negative, Mueller-Hinton broth, 37 °C, 18–24 h, read-out: MIC PA

# COMPOUND, MIC [mg/L]
records = [
    ("COc1ccc(/C=C/C(=O)OCCCCn2c3cc(OC)ccc3c3ccnc(C)c32)cc1", 305),
    ("COc1ccc2c3ccnc(C)c3n(CCCCCOC(=O)/C=C/c3cc(OC)c(OC)c(OC)c3)c2c1", 1140),
    ("COc1ccc2c3ccnc(C)c3n(CCCCCOC(=O)/C=C/c3ccccc3[N+](=O)[O-])c2c1", 220),
    ("COc1ccc(/C=C/C(=O)OCCCn2c3cc(OC)ccc3c3ccnc(C)c32)cc1", 325),
]

====

ASSAY_COMMENT: In vivo pharmacokinetic study in rats
TEST_CONTEXT: both sexes, Sprague-Dawley, plasma, po; rat, i.g. 40 mg/kg, single dose; n = 6, Mean ± SD
READOUT_TYPE: MRT (h)

# COMPOUND, READOUT_VALUE
measured = [
    ("COc1ccc2c3ccnc(C)c3n(CCCOC(=O)/C=C/c3ccccc3[N+](=O)[O-])c2c1 [Compound 3c]", 3.33),
]

====

System: Pseudomonas aeruginosa CVCC 3359 (PA)
ASSAY_COMMENT: MIC, microplate dilution method
Type: cell-based
TEST_CONTEXT: Gram-negative, Mueller-Hinton broth, 37 °C, 18–24 h, read-out: MIC PA
READOUT_TYPE: MIC (µg/mL)

# MOLECULE, READOUT_VALUE
data = [
    ("COc1ccc2c3ccnc(C)c3n(CCCOC(=O)/C(=C/c3cc(OC)c(OC)c(OC)c3)c3ccc(OC)c(OC)c3)c2c1 [Compound 3d]", 362),
    ("COc1ccc2c3ccnc(C)c3n(CCCCCCOC(=O)/C=C/c3ccccc3[N+](=O)[O-])c2c1 [Compound 6c]", 750),
    ("COc1ccc2c3ccnc(C)c3n(CCCCCOC(=O)/C(=C/c3cc(OC)c(OC)c(OC)c3)c3ccc(OC)c(OC)c3)c2c1 [Compound 5d]", 381),
    ("COc1ccc(/C=C/C(=O)OCCCCCn2c3cc(OC)ccc3c3ccnc(C)c32)cc1 [Compound 5a]", 125),
    ("COc1ccc(/C=C/C(=O)OCCCCCCn2c3cc(OC)ccc3c3ccnc(C)c32)cc1 [Compound 6a]", 331),
    ("COc1ccc2c3ccnc(C)c3n(CCCCOC(=O)/C=C/c3ccccc3[N+](=O)[O-])c2c1 [Compound 4c]", 388),
    ("COc1ccc2c3ccnc(C)c3n(CCCCCCOC(=O)/C=C/c3cc(OC)c(OC)c(OC)c3)c2c1 [Compound 6b]", 305),
]

====

ASSAY_COMMENT: In vivo pharmacokinetic study in rats
TEST_CONTEXT: both sexes, Sprague-Dawley, plasma, po; rat, i.g. 40 mg/kg, single dose; n = 6, Mean ± SD
READOUT_TYPE: AUC(0-inf) (ng·h/mL)

# COMPOUND, READOUT_VALUE
rows = [
    ("COc1ccc2c3ccnc(C)c3n(CCCOC(=O)/C=C/c3ccccc3[N+](=O)[O-])c2c1", 290),
]

====

ASSAY_COMMENT: In vivo pharmacokinetic study in rats
TEST_CONTEXT: both sexes, Sprague-Dawley, plasma, iv; rat, i.v. 10 mg/kg, single dose; n = 6, Mean ± SD
READOUT_TYPE: half-life (h)

# COMPOUND, READOUT_TYPE, READOUT_VALUE
data = [
    ("COc1ccc2c3ccnc(C)c3n(CCCOC(=O)/C=C/c3ccccc3[N+](=O)[O-])c2c1", "half-life", 2.27),
]
